These measurements were taken from patent US9695154B2.

target: recombinant human SAE enzyme (Homo sapiens); assay: SAE HTRF Enzyme Assay; format: biochemical; settings: compound concentration 0.111 μM; read-out: Percent Inhibition
Sequence (Q9UBT2 whole entry): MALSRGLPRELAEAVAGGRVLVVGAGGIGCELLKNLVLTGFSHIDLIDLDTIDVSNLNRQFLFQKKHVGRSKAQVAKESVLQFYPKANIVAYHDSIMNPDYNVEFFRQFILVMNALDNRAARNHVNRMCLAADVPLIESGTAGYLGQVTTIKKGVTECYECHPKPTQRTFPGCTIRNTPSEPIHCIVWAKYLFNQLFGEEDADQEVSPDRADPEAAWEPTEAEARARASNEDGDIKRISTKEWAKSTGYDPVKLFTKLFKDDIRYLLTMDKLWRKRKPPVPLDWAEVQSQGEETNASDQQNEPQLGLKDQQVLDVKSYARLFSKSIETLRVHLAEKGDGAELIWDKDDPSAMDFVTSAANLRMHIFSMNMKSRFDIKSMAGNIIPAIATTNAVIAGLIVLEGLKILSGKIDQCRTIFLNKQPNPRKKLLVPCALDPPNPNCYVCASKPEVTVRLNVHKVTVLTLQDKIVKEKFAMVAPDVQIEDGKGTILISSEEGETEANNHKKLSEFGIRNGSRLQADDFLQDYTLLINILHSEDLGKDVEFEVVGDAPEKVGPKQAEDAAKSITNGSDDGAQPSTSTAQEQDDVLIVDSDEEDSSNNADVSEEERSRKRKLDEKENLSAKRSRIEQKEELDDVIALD
Sequence (Q9UBE0 whole entry partner): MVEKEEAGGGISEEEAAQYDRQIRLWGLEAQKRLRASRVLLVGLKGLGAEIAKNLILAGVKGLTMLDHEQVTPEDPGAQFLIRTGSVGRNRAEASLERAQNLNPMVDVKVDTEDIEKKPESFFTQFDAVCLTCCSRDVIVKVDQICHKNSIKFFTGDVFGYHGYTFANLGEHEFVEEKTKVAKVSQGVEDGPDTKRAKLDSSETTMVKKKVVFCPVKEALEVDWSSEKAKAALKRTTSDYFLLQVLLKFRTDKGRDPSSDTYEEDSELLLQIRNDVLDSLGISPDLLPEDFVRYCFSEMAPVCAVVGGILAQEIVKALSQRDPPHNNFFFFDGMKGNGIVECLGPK
Decision: inhibition at 0.111 µM >= 90% yields rule met, all other cases yield rule not met.

COMPOUND: CC(C)CC#CCn1ccc(C(=O)c2cncnc2N[C@@H]2C[C@H](COS(N)(=O)=O)[C@@H](O)C2)n1 [Compound I-153]
LABEL: rule not met
--
COMPOUND: NS(=O)(=O)OC[C@H]1C[C@@H](Nc2ncncc2C(=O)c2ccn(Cc3cccc(NC(=O)CCl)c3)n2)[C@H](O)[C@@H]1O [Compound I-67]
LABEL: rule met
--
COMPOUND: NS(=O)(=O)OC[C@H]1C[C@@H](Nc2ncncc2C(=O)c2ccn(Cc3ccc(Cl)c(Br)c3)n2)[C@@H](F)[C@@H]1O [Compound I-127]
LABEL: rule met
--
COMPOUND: Cc1cc(C(=O)c2cncnc2N[C@@H]2C[C@H](COS(N)(=O)=O)[C@@H](O)C2)nn1C(C)c1cccc(Cl)c1 (single isomer, unassigned) [Compound I-172]
LABEL: rule not met
--
COMPOUND: NS(=O)(=O)OC[C@H]1C[C@@H](Nc2ncncc2C(=O)c2ccn(Cc3ccc(Br)o3)c2)[C@@H](F)[C@@H]1O [Compound I-24]
LABEL: rule met
--
COMPOUND: NS(=O)(=O)OC[C@H]1C[C@@H](Nc2ncncc2C(=O)c2ccn(Cc3ccc(F)cc3)n2)[C@H](O)[C@@H]1O [Compound I-106]
LABEL: rule met

Field: next compound
Please tell me: is the compound NS(=O)(=O)OC[C@H]1C[C@@H](Nc2ncncc2C(=O)c2ccn(CCc3cccc(Br)c3)c2)[C@@H](F)[C@@H]1O [Compound I-243] at or over 90% in terms of inhibition at 0.111 µM? rule met
